Could you please report measured IC50 for the items listed next?
subject of test: CDK12 complexed with Cyclin K (Homo sapiens)
Construct: GST (N)
method summary: CDK Enzymatic Assays (HTRF, LANCE Ultra kinase assay), Example A1
Format: biochemical
condition details: enzyme pre-incubated with compounds for 60 minutes prior to addition of ATP (1 mM final) and Ulight-peptide; reaction 60-90 minutes at room temperature

1) C=CC(=O)Nc1ccc2c(c1)nc([C@H]1CCC[C@@H](Nc3ncc(C#N)cn3)C1)n2C	< 50 nM
2) C=CC(=O)Nc1ccc2c(c1)nc(N1C[C@H](F)C[C@@H](Nc3ncc(C(F)(F)F)cn3)C1)n2C	< 50 nM
3) C=CC(=O)Nc1cc2nc(N3CC[C@H](F)[C@@H](Nc4ncc(C(F)(F)F)cn4)C3)n(C)c2cc1C	< 50 nM
4) C=CC(=O)Nc1cncc2sc(N3CC[C@@H](Nc4ncc(C#N)c(OC)n4)C3)nc12	< 50 nM
5) CCC(Br)C(=O)Nc1ccc2c(c1)nc([C@H]1CCC[C@@H](Nc3ncc(C#N)c(OC)n3)C1)n2C (stereo partly shown)	< 50 nM
6) C=CC(=O)Nc1ccc2c(c1)C(=O)N([C@H]1CCC[C@@H](Nc3ncc(Br)cn3)C1)C2	< 50 nM

Now, please, on to the next compound.
Exercise: Given `C=C(F)C(=O)Nc1ccc2c(c1)nc([C@H]1CCC[C@@H](Nc3ncc(C#N)c(OC)n3)C1)n2C` , state its recorded IC50.
Solution: 50 to 500 nM

* * *

Could you please report measured IC50 for the items listed next?
subject of test: CDK12 complexed with Cyclin K (Homo sapiens, UniProt Q9NYV4)
Construct: GST (N)
Sequence (Q9NYV4 whole entry): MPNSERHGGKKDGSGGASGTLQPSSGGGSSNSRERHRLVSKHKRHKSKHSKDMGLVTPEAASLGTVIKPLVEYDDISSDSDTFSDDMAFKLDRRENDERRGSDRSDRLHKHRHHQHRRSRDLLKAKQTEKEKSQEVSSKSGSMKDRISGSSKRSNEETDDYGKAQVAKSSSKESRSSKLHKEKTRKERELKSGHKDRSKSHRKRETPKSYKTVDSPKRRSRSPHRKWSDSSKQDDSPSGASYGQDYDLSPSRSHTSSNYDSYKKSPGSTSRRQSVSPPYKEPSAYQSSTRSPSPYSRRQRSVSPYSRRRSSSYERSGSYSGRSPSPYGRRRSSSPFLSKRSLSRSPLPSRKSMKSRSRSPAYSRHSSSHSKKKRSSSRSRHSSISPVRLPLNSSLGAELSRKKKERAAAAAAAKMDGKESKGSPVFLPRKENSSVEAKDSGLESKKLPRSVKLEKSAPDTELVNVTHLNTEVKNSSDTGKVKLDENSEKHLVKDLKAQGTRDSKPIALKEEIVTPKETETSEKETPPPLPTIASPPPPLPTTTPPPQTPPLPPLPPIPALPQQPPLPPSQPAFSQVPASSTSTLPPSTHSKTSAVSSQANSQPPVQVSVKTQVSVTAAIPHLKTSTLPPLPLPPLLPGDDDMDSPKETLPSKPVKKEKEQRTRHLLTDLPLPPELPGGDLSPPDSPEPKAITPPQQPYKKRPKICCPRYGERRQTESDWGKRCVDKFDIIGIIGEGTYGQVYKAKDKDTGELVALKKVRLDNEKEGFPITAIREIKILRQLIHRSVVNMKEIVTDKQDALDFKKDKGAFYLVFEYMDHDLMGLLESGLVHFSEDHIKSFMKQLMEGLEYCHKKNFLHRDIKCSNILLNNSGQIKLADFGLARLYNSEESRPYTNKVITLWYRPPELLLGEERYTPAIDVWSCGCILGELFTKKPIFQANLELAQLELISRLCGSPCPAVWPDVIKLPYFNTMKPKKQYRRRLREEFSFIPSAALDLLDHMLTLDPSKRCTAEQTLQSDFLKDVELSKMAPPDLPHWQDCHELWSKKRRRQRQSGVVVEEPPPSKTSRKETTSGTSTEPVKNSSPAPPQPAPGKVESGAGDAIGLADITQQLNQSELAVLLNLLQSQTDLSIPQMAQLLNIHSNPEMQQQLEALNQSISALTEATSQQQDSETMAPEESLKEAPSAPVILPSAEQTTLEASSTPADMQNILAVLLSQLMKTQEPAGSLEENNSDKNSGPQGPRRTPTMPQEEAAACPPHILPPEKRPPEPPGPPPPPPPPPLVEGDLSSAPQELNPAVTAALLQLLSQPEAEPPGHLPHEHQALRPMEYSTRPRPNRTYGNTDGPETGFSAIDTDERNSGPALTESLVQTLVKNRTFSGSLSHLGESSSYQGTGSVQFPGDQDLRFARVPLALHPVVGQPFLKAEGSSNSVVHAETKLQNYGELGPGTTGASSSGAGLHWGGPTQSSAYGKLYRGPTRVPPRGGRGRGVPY
Sequence (O75909 whole entry partner): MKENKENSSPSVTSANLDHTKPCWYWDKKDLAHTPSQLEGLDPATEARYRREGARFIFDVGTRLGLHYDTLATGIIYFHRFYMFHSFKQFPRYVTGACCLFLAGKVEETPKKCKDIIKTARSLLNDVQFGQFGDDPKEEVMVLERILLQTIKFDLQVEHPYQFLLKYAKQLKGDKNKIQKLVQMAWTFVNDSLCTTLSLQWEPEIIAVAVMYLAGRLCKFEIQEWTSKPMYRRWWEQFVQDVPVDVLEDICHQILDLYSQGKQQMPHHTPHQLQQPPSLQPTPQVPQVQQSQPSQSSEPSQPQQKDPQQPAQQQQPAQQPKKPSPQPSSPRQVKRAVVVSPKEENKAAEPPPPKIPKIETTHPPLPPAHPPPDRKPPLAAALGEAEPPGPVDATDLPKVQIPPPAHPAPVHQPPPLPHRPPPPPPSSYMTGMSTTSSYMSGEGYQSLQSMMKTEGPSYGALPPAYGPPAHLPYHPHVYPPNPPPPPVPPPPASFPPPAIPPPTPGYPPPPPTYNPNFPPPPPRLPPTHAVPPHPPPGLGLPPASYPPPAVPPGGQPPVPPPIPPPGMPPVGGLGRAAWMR
method summary: Alternative CDK Enzymatic Assays (HTRF, pre-incubation with compounds and 1 mM ATP), Example A2
Format: biochemical
condition details: enzyme pre-incubated with compounds and 1 mM ATP for 60 minutes; reaction 120 minutes at 25° C.

Please go through the list and note IC50 for each molecule.
1. C=CC(=O)Nc1cc2nc(N3C[C@H](F)C[C@@H](Nc4ncc(C#N)c(CC)n4)C3)n(C)c2cc1C [Example 161]
2. C=CC(=O)Nc1ccc2c(c1)nc(N1C[C@H](O)C[C@@H](Nc3ncc(C#N)cn3)C1)n2C [Example 122]
3. C=CC(=O)Nc1c(C)cc2c(nc(N3C[C@H](F)C[C@@H](Nc4ncc(C#N)cn4)C3)n2C)c1Br [Example 145]
4. C=CC(=O)N1CCC(c2nccn3c(N4CCC[C@@H](Nc5ncc(C(F)(F)F)cn5)C4)ncc23)CC1 [Example 110]

Solution:
1. < 50 nM
2. < 50 nM
3. 50 to 500 nM
4. 50 to 500 nM

Please go through the list and note IC50 for each molecule.
1. C=CC(=O)Nc1cc2nc(N3C[C@H](F)C[C@@H](Nc4ncc(C#N)c(NC)n4)C3)n(C)c2cc1C [Example 158]
2. C=CC(=O)N(c1ccc2c(c1)nc(N1CCC[C@@H](Nc3ncc(C(F)(F)F)cn3)C1)n2C)C1CCOC1 (stereo partly shown) [Example 165]
3. C=CC(=O)Nc1ccc2c(c1)nc(N1CCC(F)(F)[C@@H](Nc3ncc(C#N)cn3)C1)n2C [Example 127]

Solution:
1: < 50 nM; 2: < 50 nM; 3: < 50 nM

* * *

subject of test: CDK12 complexed with Cyclin K (Homo sapiens)
Construct: GST (N)
method summary: Alternative CDK Enzymatic Assays (HTRF, pre-incubation with compounds and 1 mM ATP), Example A2
Format: biochemical
condition details: enzyme pre-incubated with compounds and 1 mM ATP for 60 minutes; reaction 120 minutes at 25° C.
readout type: IC50

1. C=CC(=O)Nc1cc2nc(N3CCC[C@@H](Nc4ncc(C(F)(F)F)cn4)C3)n(C)c2cc1OC	< 50 nM
2. C=CC(=O)Nc1cc2nc(N3CC[C@@H](O)[C@@H](Nc4ncc(C(F)(F)F)cn4)C3)n(C)c2cc1C	> 500 nM

Please go through the list and note IC50 for each compound.
1. C=CC(=O)Nc1ccc2c(c1)nc(N1CCC[C@@H](Nc3cc(OC)c(C#N)cn3)C1)n2C
2. C=CC(=O)Nc1ccc2c(c1)nc(N1CCC[C@@H](Nc3ncc(C(F)(F)F)cn3)C1)n2C
3. Cc1cc2c(cc1NC(=O)C#CC(C)(C)O)nc(N1C[C@H](F)C[C@@H](Nc3ncc(C(F)(F)F)cn3)C1)n2C
4. CC#CC(=O)Nc1cc2nc(N3C[C@H](F)C[C@@H](Nc4ncc(C(F)(F)F)cn4)C3)n(C)c2cc1C
5. C=CC(=O)Nc1ccc2c(c1)nc(N1CCC[C@@H](Nc3ncc(C#N)cn3)C1)n2C
6. C=CC(=O)Nc1cc2nc(N3CCC[C@@H](Nc4ncc(C(F)(F)F)cn4)C3)n(C)c2cc1C(C)C

Solution:
["< 50 nM", "< 50 nM", "< 50 nM", "50 to 500 nM", "< 50 nM", "< 50 nM"]

* * *

subject of test: CDK12 complexed with Cyclin K (Homo sapiens, UniProt Q9NYV4)
Construct: GST (N)
method summary: Alternative CDK Enzymatic Assays (HTRF, pre-incubation with compounds and 1 mM ATP), Example A2
Format: biochemical
condition details: enzyme pre-incubated with compounds and 1 mM ATP for 60 minutes; reaction 120 minutes at 25° C.
pIC50: −log10 of the molar value.
readout type: pIC50

# annotated cases, reported pIC50 shown
1. COC/C=C/C(=O)Nc1cc2nc(N3C[C@H](F)C[C@@H](Nc4ncc(C(F)(F)F)cn4)C3)n(C)c2cc1C	6.30 to 7.30
2. C=CC(=O)Nc1cc2nc(N3C[C@H](F)C[C@@H](Nc4ncc(C(F)(F)F)cn4)C3)n(C)c2cc1Br	> 7.30
3. C=CC(=O)Nc1cc2nc(N3C[C@H](F)C[C@@H](Nc4ccc(C#N)cn4)C3)n(C)c2cc1C	6.30 to 7.30
4. COCC#CC(=O)Nc1cc2nc(N3C[C@H](F)C[C@@H](Nc4ncc(C(F)(F)F)cn4)C3)n(C)c2cc1C	> 7.30

Please go through the list and note pIC50 for each compound.
1. C=CC(=O)Nc1cc2nc(N3CCC[C@@H](Nc4ncc(C(F)(F)F)cn4)C3)n(C)c2cc1CC
2. Cc1cc2c(cc1NC(=O)C#CCO)nc(N1C[C@H](F)C[C@@H](Nc3ncc(C(F)(F)F)cn3)C1)n2C
3. Cc1cc2c(cc1NC(=O)/C=C/CN1CCCCC1)nc(N1C[C@H](F)C[C@@H](Nc3ncc(C(F)(F)F)cn3)C1)n2C
4. C=CC(=O)Nc1ccc2c(c1)nc(N1CCC[C@@H](Nc3ncc(C(F)(F)F)s3)C1)n2C

Solution:
1: > 7.30; 2: > 7.30; 3: < 6.30; 4: > 7.30

* * *

subject of test: CDK12 complexed with Cyclin K (Homo sapiens)
Construct: GST (N)
method summary: Alternative CDK Enzymatic Assays (HTRF, pre-incubation with compounds and 1 mM ATP), Example A2
Format: biochemical
condition details: enzyme pre-incubated with compounds and 1 mM ATP for 60 minutes; reaction 120 minutes at 25° C.
pIC50: −log10 of the molar value.
readout type: pIC50

# annotated cases, reported pIC50 shown
1. C=CC(=O)Nc1ccc2c(c1)nc(N1C[C@H](Nc3ncc(C(F)(F)F)cn3)CC(F)(F)C1)n2C	> 7.30
2. C=CC(=O)Nc1cc2nc(N3C[C@H](F)C[C@@H](Nc4ncc(C#N)s4)C3)n(C)c2cc1C	6.30 to 7.30

Please go through the list and note pIC50 for each molecule.
1. C=CC(=O)N1CCC12CN(c1nccn3c(N4C[C@H](F)C[C@@H](Nc5ncc(C(F)(F)F)cn5)C4)ncc13)C2
2. C=CC(=O)Nc1cc2nc(N3C[C@H](F)C[C@@H](Nc4ncc(C(F)(F)F)cn4)C3)n(C)c2cc1F

Solution:
> 7.30
> 7.30

* * *

Could you please report measured IC50 for the items listed next?
subject of test: CDK12 complexed with Cyclin K (Homo sapiens, UniProt Q9NYV4)
Construct: GST (N)
method summary: CDK Enzymatic Assays (HTRF, LANCE Ultra kinase assay), Example A1
Type: biochemical
condition details: enzyme pre-incubated with compounds for 60 minutes prior to addition of ATP (1 mM final) and Ulight-peptide; reaction 60-90 minutes at room temperature

# annotated cases, reported IC50 shown
1. C=CC(=O)Nc1ccc2c(c1)nc(N1C[C@H](O)C[C@@H](Nc3ncc(C(F)(F)F)cn3)C1)n2C	< 50 nM
2. C=C(F)C(=O)Nc1ccc2c(c1)C(=O)N([C@H]1CCC[C@@H](Nc3ncc(C#N)c(OC)n3)C1)C2	50 to 500 nM

Please go through the list and note IC50 for each molecule.
1. C=CC(=O)Nc1cc2nc(N3C[C@H](F)C[C@@H](Nc4ncc(C(F)(F)F)cn4)C3)n(C)c2cc1C1CC1
2. COc1nc(N[C@@H]2CCCN(c3cc4c(cn3)c(NC(=O)C(C)Br)nn4C)C2)ncc1C#N (some centres unmarked)
3. C=CC(=O)Nc1nn(C)c2c(N3CC[C@@H](Nc4ncc(C#N)cn4)C3)cccc12
4. C=CC(=O)Nc1ccc2c(c1)C(=O)N([C@H]1CCC[C@@H](Nc3cc(C#N)c(C(F)(F)F)cn3)C1)C2
5. COc1nc(N[C@@H]2CCC[C@H](N3Cc4ccc(NC(=O)CCl)cc4C3=O)C2)ncc1C#N
6. C=CC(=O)Nc1ccc2c(c1)ncn2[C@H]1CCC[C@@H](Nc2ncc(C#N)c(OC)n2)C1
7. C=CC(=O)Nc1ccc2sc(N3CCC[C@@H](Nc4ncc(C#N)c(OC)n4)C3)nc2c1

Solution:
1: < 50 nM; 2: < 50 nM; 3: 50 to 500 nM; 4: < 50 nM; 5: < 50 nM; 6: < 50 nM; 7: < 50 nM
